molecular target: unphosphorylated-BTK kinase domain (UP-BTK), GST-tagged human BTK (389-659aa) (Homo sapiens (Human)); test: BTK kinase Lanthascreen binding assay; conditions: unphosphorylated-BTK kinase domain, 60 minutes incubation, 50 nM Tracer 236; pIC50 = negative log of the IC50 in molar
Sequence (Q06187 389-659): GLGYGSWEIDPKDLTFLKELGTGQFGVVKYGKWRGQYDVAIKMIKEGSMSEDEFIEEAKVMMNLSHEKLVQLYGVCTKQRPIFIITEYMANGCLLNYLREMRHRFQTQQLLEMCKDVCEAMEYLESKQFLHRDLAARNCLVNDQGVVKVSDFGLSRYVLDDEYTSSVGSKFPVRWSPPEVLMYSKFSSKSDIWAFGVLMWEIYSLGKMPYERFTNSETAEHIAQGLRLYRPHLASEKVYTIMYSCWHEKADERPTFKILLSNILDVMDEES
Readout: BTK_I_binding pIC50

Please fill in: BTK_I_binding pIC50 reported for C=CC(=O)N1CC[C@@H](NC(=O)c2sc3nccc4c3c2NC(=O)N4c2ccc(Oc3cccnn3)nc2C)C1 = 5.6

Measured BTK_I_binding pIC50 of Cc1cccc(N2C(=O)Nc3c(C(=O)N[C@@H]4CCCNC4)sc4nccc2c34)c1 : 5.1

Value of BTK_I_binding pIC50 reported for the compound O=C(N[C@@H]1CCCNC1)c1sc2nccc3c2c1NC(=O)N3c1ccc(Cl)cc1 is 5.1

CN1CC[C@@H](NC(=O)c2sc3nccc4c3c2NC(=O)N4c2ccc(Oc3ccccc3)cc2)C1 yielded BTK_I_binding pIC50 of 6.7
